Measured values drawn from the RNAGym collection of RNA variant scans (doi:10.7554/elife.80360) for this set.

B1: HDV Ribozyme (parent)
chain: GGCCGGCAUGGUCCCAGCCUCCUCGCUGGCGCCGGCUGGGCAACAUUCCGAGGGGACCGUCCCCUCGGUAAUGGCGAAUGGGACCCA

variants of: B1; test: self-cleavage, relative activity (ratio to wild type); higher = more cleavage; co-transcriptional
Entry flag: True if self-cleavage reaches 0.2; False if it does not.

Example entries begin here.
-- ask Would you say GGGCGGCAUGGUCCCAGCCUCCUCGCUGGCGCCGGCUGGGCAACAUUUCGAGGGGACCGUCCCCUCGGUAAUGGCGAAUGGGACCCA [C3G C48U] shows self-cleavage at minimum 0.2?
-- reply True

-- ask Would you say GGCCGGAAUGGUCCCAACCUCCUCGCUGGCGCCGGCUGGGCAACAUUCCGAGGGGACCGUCCCCUCGGUAAUGGCGAAUGGGACCCA [C7A G17A] shows self-cleavage at minimum 0.2?
-- reply False

-- ask Would you say GGCCGGCAUGGUCCUAGCCCCCUCGCUGGCGCCGGCUGGGCAACAUUCCGAGGGGACCGUCCCCUCGGUAAUGGCGAAUGGGACCCA [C15U U20C] shows self-cleavage at minimum 0.2?
-- reply False

-- ask Would you say GGCCGGCAUGGUCCCAGCCUCCUCGCUGGCGCCGGCUGGGCAACAUUCCGAGGGCACCGUCCCCUCCGUAAUGGCGAAUGGGACCCA [G55C G67C] shows self-cleavage at minimum 0.2?
-- reply True

-- ask Would you say GGCCGGCAUGGUCCCAGCCUCCUCGCUGGGGCCGGCUGGGCAACAUUCCGAGGGGACCGUCCCCUCGGUAAUGGCGAAUGGGCCCCA [C30G A83C] shows self-cleavage at minimum 0.2?
-- reply False

Attention now turns to another entry.
-- ask Would you say GGCCGGCAUGGUCCCAGCCUCCUCGCUGGCGCCGGCUGGUCAACAUUCCGCGGGGACCGUCCCCUCGGUAAUGGCGAAUGGGACCCA [G40U A51C] shows self-cleavage at minimum 0.2?
-- reply True
